System: Nucleic Acid
Experiment: Binding affinity to wild type HIV1 TAR RNA assessed as association constant at pH 6.8 by ethidium bromide displacement assay based Scatchard analysis method
Assay type: nucleic-acid assay
Conditions: Human immunodeficiency virus 1
Can you tell me K for the items I'm about to list?
One number for each entry, in ×10⁷ /M.

NC[C@@H]1O[C@H](O[C@H]2[C@@H](O)[C@H](O[C@@H]3[C@@H](O)[C@H](N)C[C@H](N)[C@H]3O[C@H]3O[C@H](CN)[C@@H](O)[C@H](O)[C@H]3N)O[C@@H]2Cn2cc(CCCc3cn(C[C@H]4O[C@@H](O[C@@H]5[C@@H](O)[C@H](N)C[C@H](N)[C@H]5O[C@H]5O[C@H](CN)[C@@H](O)[C@H](O)[C@H]5N)[C@H](O)[C@@H]4O[C@H]4O[C@@H](CN)[C@@H](O)[C@H](O)[C@H]4N)nn3)nn2)[C@H](N)[C@@H](O)[C@@H]1O 7.1

Query: State, in one line, measured K of NC[C@@H]1O[C@H](O[C@H]2[C@@H](O)[C@H](O[C@@H]3[C@@H](O)[C@H](N)C[C@H](N)[C@H]3O[C@H]3O[C@H](CN)[C@@H](O)[C@H](O)[C@H]3N)O[C@@H]2Cn2cc(CCCCCCc3cn(C[C@H]4O[C@@H](O[C@@H]5[C@@H](O)[C@H](N)C[C@H](N)[C@H]5O[C@H]5O[C@H](CN)[C@@H](O)[C@H](O)[C@H]5N)[C@H](O)[C@@H]4O[C@H]4O[C@@H](CN)[C@@H](O)[C@H](O)[C@H]4N)nn3)nn2)[C@H](N)[C@@H](O)[C@@H]1O
Result: 6.6

* * *

Target: Nucleic Acid
Test: Binding affinity to HIV1 TAR RNA bulgeless mutant at pH 6.8 by ethidium bromide displacement assay
Assay type: nucleic-acid assay, Human immunodeficiency virus 1
Endpoint: IC50 (nM)
Answers are plain numbers, in nM.

Compound	IC50 (nM)
NC[C@@H]1O[C@H](O[C@H]2[C@@H](O)[C@H](O[C@@H]3[C@@H](O)[C@H](N)C[C@H](N)[C@H]3O[C@H]3O[C@H](CN)[C@@H](O)[C@H](O)[C@H]3N)O[C@@H]2CO)[C@H](N)[C@@H](O)[C@@H]1O [FRAMYCETIN]	150
NC[C@@H]1O[C@H](O[C@H]2[C@@H](O)[C@H](O[C@@H]3[C@@H](O)[C@H](N)C[C@H](N)[C@H]3O[C@H]3O[C@H](CN)[C@@H](O)[C@H](O)[C@H]3N)O[C@@H]2Cn2cc(-c3cccc(-c4cn(C[C@H]5O[C@@H](O[C@@H]6[C@@H](O)[C@H](N)C[C@H](N)[C@H]6O[C@H]6O[C@H](CN)[C@@H](O)[C@H](O)[C@H]6N)[C@H](O)[C@@H]5O[C@H]5O[C@@H](CN)[C@@H](O)[C@H](O)[C@H]5N)nn4)c3)nn2)[C@H](N)[C@@H](O)[C@@H]1O	130

Each of the following entries comes with a recorded value; kindly state IC50 for each.
1. NC[C@@H]1O[C@H](O[C@H]2[C@@H](O)[C@H](O[C@@H]3[C@@H](O)[C@H](N)C[C@H](N)[C@H]3O[C@H]3O[C@H](CN)[C@@H](O)[C@H](O)[C@H]3N)O[C@@H]2Cn2cc(CCCCc3cn(C[C@H]4O[C@@H](O[C@@H]5[C@@H](O)[C@H](N)C[C@H](N)[C@H]5O[C@H]5O[C@H](CN)[C@@H](O)[C@H](O)[C@H]5N)[C@H](O)[C@@H]4O[C@H]4O[C@@H](CN)[C@@H](O)[C@H](O)[C@H]4N)nn3)nn2)[C@H](N)[C@@H](O)[C@@H]1O
2. C/C(CCc1cn(C[C@H]2O[C@@H](O[C@@H]3[C@@H](O)[C@H](N)C[C@H](N)[C@H]3O[C@H]3O[C@H](CN)[C@@H](O)[C@H](O)[C@H]3N)[C@H](O)[C@@H]2O[C@H]2O[C@@H](CN)[C@@H](O)[C@H](O)[C@H]2N)nn1)=C(/C)CCc1cn(C[C@H]2O[C@@H](O[C@@H]3[C@@H](O)[C@H](N)C[C@H](N)[C@H]3O[C@H]3O[C@H](CN)[C@@H](O)[C@H](O)[C@H]3N)[C@H](O)[C@@H]2O[C@H]2O[C@@H](CN)[C@@H](O)[C@H](O)[C@H]2N)nn1
3. NC[C@@H]1O[C@H](O[C@H]2[C@@H](O)[C@H](O[C@@H]3[C@@H](O)[C@H](N)C[C@H](N)[C@H]3O[C@H]3O[C@H](CN)[C@@H](O)[C@H](O)[C@H]3N)O[C@@H]2Cn2cc(COCCCCCCCCOCc3cn(C[C@H]4O[C@@H](O[C@@H]5[C@@H](O)[C@H](N)C[C@H](N)[C@H]5O[C@H]5O[C@H](CN)[C@@H](O)[C@H](O)[C@H]5N)[C@H](O)[C@@H]4O[C@H]4O[C@@H](CN)[C@@H](O)[C@H](O)[C@H]4N)nn3)nn2)[C@H](N)[C@@H](O)[C@@H]1O
4. NC[C@@H]1O[C@H](O[C@H]2[C@@H](O)[C@H](O[C@@H]3[C@@H](O)[C@H](N)C[C@H](N)[C@H]3O[C@H]3O[C@H](CN)[C@@H](O)[C@H](O)[C@H]3N)O[C@@H]2Cn2cc(CCCCCCc3cn(C[C@H]4O[C@@H](O[C@@H]5[C@@H](O)[C@H](N)C[C@H](N)[C@H]5O[C@H]5O[C@H](CN)[C@@H](O)[C@H](O)[C@H]5N)[C@H](O)[C@@H]4O[C@H]4O[C@@H](CN)[C@@H](O)[C@H](O)[C@H]4N)nn3)nn2)[C@H](N)[C@@H](O)[C@@H]1O

Result:
1: 160; 2: 142; 3: 108; 4: 146

Data origin: ChEMBL document CHEMBL3588850
